assay: Caco-2 Permeability Assay; format: in vitro ADME; conditions: human, apparent permeability A to B, compound at 10 μM, apical buffer pH 6.0, basolateral buffer pH 7.4, read-out: Papp (cm/sec, *10^−6)
Label Not satisfied if Papp A→B at 10 μM falls below 20 ×10⁻⁶ cm/s; label Satisfied in every other case.

Reference set (2 entries):
CC[C@H]1C[C@@H](n2c(=O)nc(-c3cnn(C)c3)c3oc4cc(C)c(-c5cnn(C)c5)cc4c32)CCO1 : Not satisfied
CN(C)c1ccc(-c2nc(=O)n(CCC3CCCO3)c3c2oc2ccc(-c4cncs4)cc23)cn1 (stereo not drawn) : Not satisfied

Problem: Record CNc1ccc(-c2nc(=O)n(CCC3CCCO3)c3c2oc2ncc(-c4cnn(CC5CC5)c4)cc23)cn1 (stereo not drawn) ; criterion: Papp A→B at 10 μM no lower than 20 ×10⁻⁶ cm/s. Met?
Result: Not satisfied

Problem: Record CC[C@H]1C[C@@H](n2c(=O)nc(-c3cnn(C)c3)c3oc4ccc(-c5cn(C)nc5C)nc4c32)CCO1 ; criterion: Papp A→B at 10 μM no lower than 20 ×10⁻⁶ cm/s. Met?
Result: Not satisfied

Problem: Record CC[C@H]1C[C@@H](n2c(=O)nc(-c3cnn(C)c3)c3oc4cnc(-c5cnn(C)c5)cc4c32)CCCO1 ; criterion: Papp A→B at 10 μM no lower than 20 ×10⁻⁶ cm/s. Met?
Result: Satisfied

Problem: Record CNc1ccc(-c2nc(=O)n(CCC3CCCO3)c3c2oc2c(F)cc(-c4cnco4)cc23)cn1 (stereo not drawn) ; criterion: Papp A→B at 10 μM no lower than 20 ×10⁻⁶ cm/s. Met?
Result: Not satisfied

Problem: Record Cn1cc(-c2ccc3oc4c(-c5ccc(N6CCOCC6)nc5)nc(=O)n(CCC5CCCO5)c4c3c2)cn1 (stereo not drawn) ; criterion: Papp A→B at 10 μM no lower than 20 ×10⁻⁶ cm/s. Met?
Result: Not satisfied

Problem: Record CC[C@H]1C[C@@H](n2c(=O)nc(-c3cnn(C)c3)c3oc4cc(F)c(-c5ccc(CO)nc5)cc4c32)CCO1 ; criterion: Papp A→B at 10 μM no lower than 20 ×10⁻⁶ cm/s. Met?
Result: Not satisfied

Problem: Record CNc1ccc(-c2nc(=O)n(CCC3CCCCO3)c3c2oc2ccc(-c4cnn(C)c4)cc23)cn1 (stereo not drawn) ; criterion: Papp A→B at 10 μM no lower than 20 ×10⁻⁶ cm/s. Met?
Result: Not satisfied

Problem: Record CC[C@H]1C[C@@H](n2c(=O)nc(-c3cnn(C)c3)c3oc4c(C)nc(-c5cnn(C)c5)cc4c32)CCO1 ; criterion: Papp A→B at 10 μM no lower than 20 ×10⁻⁶ cm/s. Met?
Result: Not satisfied

Problem: Record CC[C@H]1C[C@@H](n2c(=O)nc(-c3cnn(C)c3)c3oc4cc(C#N)c(-c5cn(C)cn5)cc4c32)CCO1 ; criterion: Papp A→B at 10 μM no lower than 20 ×10⁻⁶ cm/s. Met?
Result: Not satisfied

Problem: Record CC[C@H]1C[C@@H](n2c(=O)nc(-c3cnn(C)c3)c3oc4cc(OC)c(-c5cnn(C)c5)cc4c32)CCO1 ; criterion: Papp A→B at 10 μM no lower than 20 ×10⁻⁶ cm/s. Met?
Result: Not satisfied

Problem: Record CC[C@H]1C[C@@H](n2c(=O)nc(-c3cnn(C)c3)c3oc4c(C#N)cc(-c5cn(C)cn5)cc4c32)CCO1 ; criterion: Papp A→B at 10 μM no lower than 20 ×10⁻⁶ cm/s. Met?
Result: Not satisfied

Problem: Record CC[C@@H]1C[C@H](n2c(=O)nc(-c3cnn(C)c3)c3oc4cnc(-c5cccnc5)cc4c32)CCO1 ; criterion: Papp A→B at 10 μM no lower than 20 ×10⁻⁶ cm/s. Met?
Result: Satisfied

###

Entries and their log10(EC50) values follow.
Test system: HIV-1
Assay: C8166 HIV-1 Luciferase Assay (EC50)
Type: cell-based
Conditions: Human immunodeficiency virus 1, C8166, 72 h
Procedure: C8166 HIV-1 Luciferase Assay (Ec50) The assay used to measure inhibition of HIV replication is as described in WO 2004/050643, pages 73-75, incorporated herein by reference, with the following modifications: […] 50 μL Steady Glo (luciferase substrate T112=5 hours Promega catalogue # E2520) is added to each well of the 96 well plate. The relative light units (RLU) of luciferase are determined using a luminescence plate reader. […]
The base-10 logarithm of EC50, taken with EC50 in µM, is what appears here.

Examples with answers:
CNc1ccc(-c2nc(=O)n(CCC3CCCO3)c3c2oc2cc(F)c(-c4cnn(C)c4)cc23)cn1 (stereo not shown) [Compound 1032] : -1.92
CNc1ccc(-c2nc(=O)n(CCC3CCCO3)c3c2oc2ccc(-c4cnn(C(C)C)c4)cc23)cn1 (stereo not shown) [Compound 1025] : -0.46

Problem: Indicate the recorded log10(EC50) value for this compound: CC[C@H]1C[C@@H](n2c(=O)nc(-c3cnn(C)c3)c3oc4ccc(-c5cnco5)nc4c32)CCO1 [Compound 1007]
Result: -2.08

Problem: Indicate the recorded log10(EC50) value for this compound: CC[C@H]1C[C@@H](n2c(=O)nc(-c3ccc(NC)nc3)c3oc4ncc(-c5cnn(C)c5)cc4c32)CCO1 [Compound 1069]
Result: -2.11

Problem: Indicate the recorded log10(EC50) value for this compound: CC[C@H]1C[C@@H](n2c(=O)nc(-c3cnn(C)c3)c3oc4ccc(-c5cn(C)cn5)nc4c32)CCO1 [Compound 1014]
Result: -2.28

Problem: Indicate the recorded log10(EC50) value for this compound: CC[C@H]1C[C@@H](n2c(=O)nc(-c3cnn(C)c3)c3oc4cc(C#N)c(-c5cnn(C)c5)nc4c32)C[C@@H](C)O1 [Compound 1017]
Result: -1.66

Problem: Indicate the recorded log10(EC50) value for this compound: CC[C@H]1C[C@@H](n2c(=O)nc(-c3ccc(OC)cn3)c3oc4ccc(-c5cn(C)cn5)nc4c32)CCO1 [Compound 1101]
Result: -1.77

###

system: HIV-1; assay: C8166 HIV-1 Luciferase Assay (EC50); assay type: cell-based; details: Human immunodeficiency virus 1, C8166, 72 h
value_kind: pEC50
Please note pEC50 is a logarithmic value: minus log10 of concentration in mol/L. Answer with that number alone.

Examples with answers:
C[C@@H]1C[C@H](n2c(=O)nc(-c3cnn(C)c3)c3oc4ccc(-c5cnn(C)c5)nc4c32)C[C@H](C)O1 : 7.13
CC[C@H]1C[C@@H](n2c(=O)nc(-c3cnn(C)c3)c3oc4ncc(-c5cccnc5)cc4c32)CCO1 : 7.39
CNc1ccc(-c2nc(=O)n(CCC3CCCO3)c3c2oc2ccc(-c4cncs4)cc23)cn1 (centres unmarked) : 7.30

Problem: Indicate the recorded pEC50 value for this molecule: CC[C@H]1C[C@@H](n2c(=O)nc(-c3cnn(C)c3)c3oc4c(C)nc(-c5cnn(C)c5)cc4c32)CCO1
Result: 8.48

Problem: Indicate the recorded pEC50 value for this molecule: CC[C@@H]1C[C@H](n2c(=O)nc(-c3ccc(NC)nc3)c3oc4ccc(-c5cnn(C)c5)cc4c32)CO1 (racemic)
Result: 7.99

Problem: Indicate the recorded pEC50 value for this molecule: CC[C@@H]1C[C@H](n2c(=O)nc(-c3cnn(C)c3)c3oc4cnc(-c5cccnc5)cc4c32)CCO1
Result: 7.74

Problem: Indicate the recorded pEC50 value for this molecule: CC[C@H]1C[C@@H](n2c(=O)nc(-c3cnn(CC)c3)c3oc4ncc(-c5cnn(CC)c5)cc4c32)CCO1
Result: 6.96

###

Entries and their EC50 values follow.
tested on: HIV-1; experiment: C8166 HIV-1 Luciferase Assay (EC50); format: cell-based; conditions: Human immunodeficiency virus 1, C8166, 72 h
State just the number; it will be interpreted in nM.

CC[C@H]1C[C@@H](n2c(=O)nc(-c3cnn(C)c3)c3oc4cnc(-c5cnc(C)o5)cc4c32)CCO1 [Compound 1088] : 36.2
CC[C@H]1C[C@@H](n2c(=O)nc(-c3cnn(C)c3)c3oc4cnc(-n5ccnc5)cc4c32)CCO1 [Compound 1090] : 160
C[C@@H]1C[C@H](n2c(=O)nc(-c3cnn(C)c3)c3oc4cc(C#N)c(-c5cnn(C)c5)cc4c32)C[C@H](C)O1 [Compound 1052] : 150

Field: next molecule
Problem: Indicate the recorded EC50 value for this molecule: CC[C@H]1C[C@@H](n2c(=O)nc(-c3cnn(C)c3)c3oc4cc(C#N)c(-c5cccnc5)cc4c32)CCO1 [Compound 1051]
Result: 220

###

assay: Caco-2 Permeability Assay; format: in vitro ADME; details: human, apparent permeability A to B, compound at 10 μM, apical buffer pH 6.0, basolateral buffer pH 7.4, read-out: Papp (cm/sec, *10^−6)
Could you mark each record TRUE if its Papp A→B at 10 μM falls strictly under 200 nm/s, and FALSE if it equals or exceeds it?

CC[C@H]1C[C@@H](n2c(=O)nc(-c3ccccn3)c3oc4ccc(-c5cn(C)cn5)nc4c32)CCO1 [Compound 1102] : FALSE
CC[C@H]1C[C@@H](n2c(=O)nc(-c3cnn(C)c3)c3oc4ccc(-c5cccnc5)cc4c32)CCO1 [Compound 1040] : TRUE
C[C@@H]1C[C@H](n2c(=O)nc(-c3cnn(C)c3)c3oc4cc(C#N)c(-c5cnn(C)c5)cc4c32)C[C@H](C)O1 [Compound 1052] : TRUE

Problem: Answer whether the molecule CC[C@H]1C[C@@H](n2c(=O)nc(-c3cnn(C)c3)c3oc4cnc(-c5cn(C)cn5)cc4c32)C[C@@H](C)O1 [Compound 1103] has Papp A→B at 10 μM strictly less than 200 nm/s
Result: TRUE

Problem: Answer whether the molecule Cn1cc(-c2cc3c(cc2F)oc2c(-c4ccc(N5CCC5)nc4)nc(=O)n(CCC4CCCO4)c23)cn1 (stereo not shown) [Compound 1033] has Papp A→B at 10 μM strictly less than 200 nm/s
Result: TRUE

Problem: Answer whether the molecule CC[C@H]1C[C@@H](n2c(=O)nc(-c3cnn(C)c3)c3oc4nc(C)c(-c5cnco5)cc4c32)CCO1 [Compound 1080] has Papp A→B at 10 μM strictly less than 200 nm/s
Result: TRUE

Problem: Answer whether the molecule CC[C@H]1C[C@@H](n2c(=O)nc(-c3cnn(C)c3)c3oc4c(C#N)c(C)c(-c5cnn(C)c5)cc4c32)CCO1 [Compound 1060] has Papp A→B at 10 μM strictly less than 200 nm/s
Result: TRUE
